- Test system: UO-31 renal
- Protocol details: NCI-60 one-dose screen, 48 h (100 = growth as untreated, 0 = no growth, -100 = all killed)
- Measurement conditions: 10 µM unless noted
The panel holds about 83,000 compounds, 20% with a hit somewhere; the sample as a whole holds those more often.
Measure name: growth (%)
Numbers only, in %.

> print(dat)
                                item.smiles  measured.value
1  COc1ccc(/C=C(/C(=O)N2CCCC2)c2cc(OC)c(OC)c(OC)c2)cc1N            51.7
2  O=C(N/N=C/c1ccc(N(CCCl)CCCl)cc1)c1cc(=O)[nH]c(=O)[nH]1            71.7
3         C/C(=N/OC(=O)N(C)C)c1ccc(Cl)cc1Cl            80.8

Kindly consider the entry below.
Observed growth on UO-31 renal, entry `Nc1cccc2c1Oc1ccccc1O2` , equals 201

* * *

- Test system: HL-60(TB) leukemia
- Protocol details: NCI-60 one-dose screen, 48 h (100 = growth as untreated, 0 = no growth, -100 = all killed)
- Measurement conditions: 10 µM unless noted
Compounds without any hit were thinned out: in the full panel of roughly 83,000, 20% have a hit.
Exercise: state measured growth for each of the compounds provided.
Answers are plain numbers, in %.

> print(dat)
                                   compound  measured.value
1  COc1ccc(Cn2nc(-c3ccccc3)c3c2CCc2cnoc2-3)cc1            69.4
2  COc1ccc(C2=NN(c3ccccc3)C(c3sc(N(CCCl)CCCl)nc3Cl)C2)cc1 (stereo not drawn)            99.8
3  COc1cc(CNCCCN2C(=O)c3ccc4c5c(ccc(c35)C2=O)C(=O)N(CCCNCc2cc(OC)c(OC)c(OC)c2)C4=O)cc(OC)c1OC           -35.8
4  Cn1cc(-c2ccc3occ(-c4cccc(-c5ccncc5)c4)c3n2)cn1             2.9
5      CC(=N\N=C(N)N)/C(=N/N=C(N)N)c1ccccc1            98.7

Working through the 7 compounds below one at a time, give growth for each.
1. O=C1c2cc(S(=O)(=O)O)ccc2C(=O)c2c1cccc2[N+](=O)[O-]
2. c1csc(-c2[nH]nc3c2CCc2ccccc2-3)c1
3. COc1cc2c(cc1OC)-c1ccc3cc4c(cc3c1N(CCCn1ccnc1)C2)OCO4
4. CCCc1n(Cc2ccc3ccccc3n2)cc[n+]1Cc1ccc2ccccc2n1
5. CNCCn1c(=O)c2cc(OC)c(OC)cc2c2ccc3cc4c(cc3c21)OCO4
6. Clc1cc(Cl)c(Cl)nn1
7. N#Cc1cnc2cc(OC[C@@H](O)CO)c(NC(=O)C3CCCC3)cc2c1Nc1ccc(OCc2cccc(F)c2)c(Cl)c1

OUT:
1. 101
2. 132
3. 3.45
4. -31.2
5. -25.7
6. 69.7
7. -28.8

Can you give me growth for all of these, one by one?
1. O=C(C[n+]1cccc(Br)c1)c1ccc2c(c1)CCCC2
2. O=C(N/N=C\c1ccc(-c2ccc(Br)cc2)o1)c1cc2oc(-c3cccc(C(F)(F)F)c3)cc2[nH]1
3. CC(=O)O.CN1[CH-]N(Cc2ccc(C#N)cc2)c2ccccc21.[Ag+]
4. Cc1nn(-c2ccc(-c3ccc(OC(F)(F)F)cc3)cc2)c2nc(Cc3ccccc3)nc(N)c12
5. CN1C(=O)C2(SCC(C(=O)NCC(=O)OC(C)(C)C)N2C(=O)C2CCCCC2)c2ccccc21 (stereo not drawn)
6. C[C@@H]1C[C@@H]([C@@H](CC2CC(=O)NC(=O)C2)OC(=O)CC(=O)c2ccccc2)C(=O)[C@@H](C)C1
7. Cn1cc(-c2cc3ncnc(Nc4ccc(CC(=O)Nc5cc(C(C)(C)C)nn5C)cc4)c3s2)cn1

OUT:
1: 83.6; 2: 146; 3: 102; 4: 88.3; 5: 93.7; 6: 13; 7: 63.4

List the reported growth of each compound below.
1. COc1cc(/C=N/Nc2ccc(Br)cc2)cc(OC)c1OC
2. COc1cc(/C=C/C(=O)c2cc(-c3ccccc3)ccc2O)cc(OC)c1OC

OUT:
1: 33; 2: 42.6

Parameter requested: growth. Apply to each item below.
1. CC(C)=NNc1ncnc2c1ncn2C1OC(CO)C(O)C1O (stereo not drawn)
2. Cc1c(C)c2c(c(C)c1NC(=O)/C=C\C(=O)O)CCC(C)(CCCC(C)CCCC(C)CCCC(C)C)O2 (stereo not drawn)

OUT:
1: 6.58; 2: 37.3

* * *

Assignment: determine reported growth for the given compounds.
- System: A549/ATCC NSCLC
- Protocol details: NCI-60 one-dose screen, 48 h (100 = growth as untreated, 0 = no growth, -100 = all killed)
- Measurement conditions: 10 µM unless noted
- Method: Growth inhibition of the A549/ATCC human Non-Small Cell Lung tumor cell line is measured as a screen for anti-cancer activity. Cells are grown in 96 well plates and exposed to the test compound for 48 hours. Compounds are tested at a single concentration, which is 10^-5 M for most compounds. The reported endpoint is percent growth (GI% or GIPRCNT), where numbers from 0 - 100% represent growth inhibition, and numbers from -100% - 0 represent cell death. […]
The panel holds about 83,000 compounds, 20% with a hit somewhere; the sample as a whole holds those more often.
One number for each entry, in %.

// worked examples, growth included
Compound	Endpoint unit	growth
C/C(=C\C(=O)O[C@H]1[C@@H]2[C@H](C)CC[C@H]2[C@]2(C)O[C@@]1(C1CCCCC1)C[C@H]2OC(=O)CO)c1ccccc1	%	40.8
C/C(=N/OC(=O)N(C)C)c1cc(Cl)ccc1Cl	%	101
O=C(CCc1ccco1)NC1CCN(CC2(c3ccc(Cl)cc3)CCC2)CC1	%	8.74
CCC[CH2][Sn]([CH2]CCC)([CH2]CCC)[O]C(=O)CC	%	-78.8
CCCCCCCC(=O)OCC/C=C/C1OC1C1OC(=O)/C=C\C=C\c2nc(oc2C)/C=C(/C)CCC2OC2C1OC(=O)NC(C)=O (centres undefined)	%	5.19

Look up growth for the entries below, preserving their order.
1. CCC(C)[C@H]1O[C@]2(C=C[C@@H]1C)C[C@@H]1C[C@@H](C/C=C(\C)[C@@H](OC3C[C@H](OC)C(O[C@H]4C[C@H](OC)[C@@H](O)[C@H](C)O4)[C@H](C)O3)[C@@H](C)/C=C/C=C3\CO[C@@H]4[C@H](O)C(C)=C[C@@H](C(=O)O1)[C@]34O)O2 (some centres undefined)
2. COC(=O)C[Se]C(=O)c1ccccc1OC(C)=O
3. O=C(O)c1cccc(CCl)c1
4. C/C(=N/OC(=O)N(C)C)c1ccc(Cl)cc1Cl

OUT:
1: 6.21; 2: 33.7; 3: 96; 4: 97.3

* * *

- System: SNB-19 CNS
- Protocol details: NCI-60 one-dose screen, 48 h
- Measurement conditions: 10 µM unless noted
Compounds without any hit were thinned out: in the full panel of roughly 83,000, 20% have a hit. The source made the active and inactive calls. How the source made its calls: active means growth percent below 10; inactive means the rest.
API: response.call in t for active, f for inactive

Sample answers from the record:
> print(dat)
                                    compound  experimental.system  qualitative.label
 1                      CNC(=O)Oc1cccc(OC)c1           SNB-19 CNS                  f
 2          [O]=[Sn]([CH]1CCCCC1)[CH]1CCCCC1           SNB-19 CNS                  t
 3  CC(=O)OC1CCC2(C)C(=CCC3C4CC(CN5CC5)C(=O)C4(C)CCC32)C1 (configuration not stated)           SNB-19 CNS                  f
 4  CC1(C)N=C(N)N=C(N)N1c1ccc(CCCCc2ccc(S(=O)(=O)F)cc2)cc1           SNB-19 CNS                  f
 5  N#C[Se]CCN1C(=O)C2C(C1=O)[C@H]1C=C[C@@H]2S1 (some centres not stated)           SNB-19 CNS                  t
 6  CC12CCC(=O)C=C1C(O)CC1C2CCC2(C)C(O)CCC12 (configuration not stated)           SNB-19 CNS                  f
 7  C[C@]12CC[C@@H]3c4ccc(OC(=O)Cc5ccc(N(CCCl)CCCl)cc5)cc4CC[C@H]3[C@@H]1CC[C@@H]2OC(=O)Cc1ccc(N(CCCl)CCCl)cc1           SNB-19 CNS                  f
 8  CC(=O)[O][Hg][c]1nc2c(c(=O)n(C)c(=O)n2C)n1C           SNB-19 CNS                  f
 9                                Cc1ccccc1O           SNB-19 CNS                  f
10  CC1(C)CC2(CC(C)(C)c3cc(O)c(O)cc32)c2cc(O)c(O)cc21           SNB-19 CNS                  f

IN: Query: recorded result category for `CCN(CC)CCOc1c(C(C)C)cccc1C(C)C` in this test
OUT: f

IN: Dear colleague, could you share the recorded outcome for N#C[Se]CCCNS(=O)(=O)C1CC2C=CC1C2 (configuration not stated) when you have a moment?
OUT: t

IN: Tell me the assay call for `O=C(O)c1cccc(CCl)c1` please.
OUT: f
